# Measurement Target: Protein kinase C (PKC)
# Assay Procedure: Protein kinase C assay (96-well, H1 histone phosphorylation, 32P-ATP)
# Applied Conditions: PKC partially purified from rat brain; H1 histone 200 μg, 50 μM ATP, 5-7 min, room temperature; estimated error of IC50 less than 10%
Parameter Measured: IC50 (nM)

>  <Structure As Smiles>
CCN(CC)CCOc1cccc2c1-c1c(OC)cc(OC)cc1C2=O

>  <Assay Value>
900

$$$$

(1) CCN(CC)CCOc1cccc2c1C(=O)c1cccc(OCCN(CC)CC)c1-2
(2) CCCOc1cc(OC)c2c(c1N)C(=O)c1cccc(OCCN(CC)CC)c1-2
(3) CCN(CC)CCOc1cc(OC)c2c(c1)C(=O)c1cccc(OCCN(CC)CC)c1-2
Could you please sort these 3 entries by IC50 from high to low? The labels, placed in the requested order, form the answer.
1, 3, 2
(1: 15000 nM, 3: 1100 nM, 2: 79 nM)
